tested on: vancomycin-sensitive Staphylococcus aureus Newman strain; experiment: In vitro antibacterial activity assay (MIC, CLSI dilution method); assay type: cell-based; details: Staphylococcus aureus, NEWMAN, 16 h, S. aureus Newman, 37° C.
The compounds listed here are annotated with their MIC.
The response must be a number in µg/mL with no trailing unit.

| compound | MIC (µg/mL) |
| --- | --- |
| CN[C@H](CC(C)C)C(=O)N[C@H]1C(=O)N[C@@H](CC(N)=O)C(=O)N[C@H]2C(=O)N[C@H]3C(=O)N[C@H](C(=O)NC(C(=O)NCCCN(C)C)c4cc(O)c(CNCCCNC(=O)[C@H](O)[C@@H](O)[C@H](O)[C@H](O)CO)c(O)c4-c4cc3ccc4O)[C@H](O)c3ccc(c(Cl)c3)Oc3cc2cc(c3OC2O[C@H](CO)C(O)C(O)[C@H]2O[C@H]2CC(C)(NCc3ccc(-c4ccc(Cl)cc4)cc3)[C@H](O)C(C)O2)Oc2ccc(cc2Cl)[C@H]1O (stereo partly drawn) [Van022] | 1 |

Request: Can you share its MIC? I mean this compound: CN[C@H](CC(C)C)C(=O)N[C@H]1C(=O)N[C@@H](CC(N)=O)C(=O)N[C@H]2C(=O)N[C@H]3C(=O)N[C@H](C(=O)N[C@H](C(=O)O)c4cc(O)c(CNCCCNC(=O)[C@H](O)[C@@H](O)[C@H](O)[C@H](O)CO)c(O)c4-c4cc3ccc4O)[C@H](O)c3ccc(c(Cl)c3)Oc3cc2cc(c3OC2O[C@H](CO)C(O)C(O)[C@H]2O[C@@H]2CC(C)[C@@H](O)C(C)(NCc3cccc4ccccc34)C2)Oc2ccc(cc2Cl)[C@H]1O (stereo partly drawn) [Van027]
Result: 1

* * *

assay: in vivo; settings: male, CD-1, mouse, iv, 5 mg/kg
quantity.measured: half-life (h)
The response must be a number in h with no trailing unit.

Request: Can you share its half-life? I mean this compound: CN[C@H](CC(C)C)C(=O)N[C@H]1C(=O)N[C@@H](CC(N)=O)C(=O)N[C@H]2C(=O)N[C@H]3C(=O)N[C@H](C(=O)N[C@H](C(=O)O)c4cc(O)c(CNCCCNC(=O)[C@H](O)[C@@H](O)[C@H](O)[C@H](O)CO)c(O)c4-c4cc3ccc4O)[C@H](O)c3ccc(c(Cl)c3)Oc3cc2cc(c3OC2O[C@H](CO)C(O)C(O)[C@H]2O[C@@H]2CC(C)[C@@H](O)C(C)(NCc3ccc(-c4ccc(C(F)(F)F)cc4)cc3)C2)Oc2ccc(cc2Cl)[C@H]1O (stereo partly shown) [Van016]
Result: 3.72

* * *

The compounds listed here are annotated with their MIC.
system: vancomycin-middle resistant Staphylococcus aureus Mu50 strain; assay: In vitro antibacterial activity assay (MIC, CLSI dilution method); type: cell-based; conditions: Staphylococcus aureus, 16 h, S. aureus Mu50, 37° C., read-out: MIC Mu50
Dear colleague, please send the value followed by its unit.

Guide cases for MIC, answers given:
| compound | study.system | MIC |
| --- | --- | --- |
| CN[C@H](CC(C)C)C(=O)N[C@H]1C(=O)N[C@@H](CC(N)=O)C(=O)N[C@H]2C(=O)N[C@H]3C(=O)N[C@H](C(=O)N[C@H](C(=O)O)c4cc(O)c(CNCCCNC(=O)[C@H](O)[C@@H](O)[C@H](O)[C@H](O)CO)c(O)c4-c4cc3ccc4O)[C@H](O)c3ccc(c(Cl)c3)Oc3cc2cc(c3OC2O[C@H](CO)C(O)C(O)[C@H]2O[C@@H]2CC(C)[C@@H](O)C(C)(NCc3ccc(-c4ccc(C(F)(F)F)cc4)cc3)C2)Oc2ccc(cc2Cl)[C@H]1O (some centres unmarked) | vancomycin-middle resistant Staphylococcus aureus Mu50 strain | 0.25 µg/mL |
| CCCCOc1ccc(CNC2(C)C[C@H](O[C@H]3C(Oc4c5cc6cc4Oc4ccc(cc4Cl)[C@@H](O)[C@@H](NC(=O)[C@@H](CC(C)C)NC)C(=O)N[C@@H](CC(N)=O)C(=O)N[C@H]6C(=O)N[C@H]4C(=O)N[C@H](C(=O)N[C@H](C(=O)O)c6cc(O)c(CNCCCNC(=O)[C@H](O)[C@@H](O)[C@H](O)[C@H](O)CO)c(O)c6-c6cc4ccc6O)[C@H](O)c4ccc(c(Cl)c4)O5)O[C@H](CO)C(O)C3O)CC(C)[C@H]2O)cc1 (some centres unmarked) | vancomycin-middle resistant Staphylococcus aureus Mu50 strain | 2 µg/mL |
| CCCCCc1ccc(CNC2(C)C[C@H](O[C@H]3C(Oc4c5cc6cc4Oc4ccc(cc4Cl)[C@@H](O)[C@@H](NC(=O)[C@@H](CC(C)C)NC)C(=O)N[C@@H](CC(N)=O)C(=O)N[C@H]6C(=O)N[C@H]4C(=O)N[C@H](C(=O)N[C@H](C(=O)O)c6cc(O)c(CNCCCNC(=O)[C@H](O)[C@@H](O)[C@H](O)[C@H](O)CO)c(O)c6-c6cc4ccc6O)[C@H](O)c4ccc(c(Cl)c4)O5)O[C@H](CO)C(O)C3O)CC(C)[C@H]2O)cc1 (some centres unmarked) | vancomycin-middle resistant Staphylococcus aureus Mu50 strain | 0.5 µg/mL |
| CCCCCCCCCC(=O)NC1(C)C[C@H](O[C@H]2C(Oc3c4cc5cc3Oc3ccc(cc3Cl)[C@@H](O)[C@@H](NC(=O)[C@@H](CC(C)C)NC)C(=O)N[C@@H](CC(N)=O)C(=O)N[C@H]5C(=O)N[C@H]3C(=O)N[C@H](C(=O)N[C@H](C(=O)O)c5cc(O)c(CNCCCNC(=O)[C@H](O)[C@@H](O)[C@H](O)[C@H](O)CO)c(O)c5-c5cc3ccc5O)[C@H](O)c3ccc(c(Cl)c3)O4)O[C@H](CO)C(O)C2O)CC(C)[C@H]1O (some centres unmarked) | vancomycin-middle resistant Staphylococcus aureus Mu50 strain | 64 µg/mL |

Request: Can you share its MIC? I mean this compound: CCCCCCCCCNC1(C)C[C@H](O[C@H]2C(Oc3c4cc5cc3Oc3ccc(cc3Cl)[C@@H](O)[C@@H](NC(=O)[C@@H](CC(C)C)NC)C(=O)N[C@@H](CC(N)=O)C(=O)N[C@H]5C(=O)N[C@H]3C(=O)N[C@H](C(=O)N[C@H](C(=O)O)c5cc(O)c(CNCCCNC(=O)[C@H](O)[C@@H](O)[C@H](O)[C@H](O)CO)c(O)c5-c5cc3ccc5O)[C@H](O)c3ccc(c(Cl)c3)O4)O[C@H](CO)C(O)C2O)CC(C)[C@H]1O (some centres unmarked)
Result: 2 µg/mL
